Biological target: mouse group 1B PLA2 (mps PLA2) (Mus musculus, UniProt Q9Z0Y2)
Construct: made in house; host or cells: E. coli
Sequence (Q9Z0Y2 23-146): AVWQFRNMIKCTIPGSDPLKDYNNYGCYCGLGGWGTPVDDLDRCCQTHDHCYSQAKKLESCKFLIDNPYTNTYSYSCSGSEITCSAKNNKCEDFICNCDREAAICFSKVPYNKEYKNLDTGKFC
Test: Fluorimetric PPyrPM assay for group 1B PLA2 inhibition (Example 12)
Type: biochemical
Conditions: mouse pancreas secreted PLA2; read-out: ILYPSA IC50 mps PLA2
Property: IC50; scope: individual compounds

compound | test.target | IC50 (nM)
Cc1c(C(=O)C(N)=O)c2c(OCC(=O)O)cccc2n1Cc1ccc2ccccc2c1 [ILY-V-9] | mouse group 1B PLA2 (mps PLA2) (Mus musculus, UniProt Q9Z0Y2) | 710
Cc1c(C(=O)C(N)=O)c2c(OCC(=O)O)cccc2n1CCCCCCCCCCCCSCCCCCCCCSCCCCCCCCCCCCn1c(C)c(C(=O)C(N)=O)c2c(OCC(=O)O)cccc21 [ILY-V-26] | mouse group 1B PLA2 (mps PLA2) (Mus musculus, UniProt Q9Z0Y2) | 340
Cc1c(CC(N)=O)c2c(OCC(=O)O)cccc2n1Cc1ccccc1 [ILY-III-22] | mouse group 1B PLA2 (mps PLA2) (Mus musculus, UniProt Q9Z0Y2) | 890
Cc1c(C(=O)C(N)=O)c2c(OCC(=O)O)cccc2n1CCCCCCCCCCCCOc1ccccc1OCCCCCCCCCCCC(=O)O [ILY-V-41] | mouse group 1B PLA2 (mps PLA2) (Mus musculus, UniProt Q9Z0Y2) | 1600
